# experimental_system: Serotonin 2 receptors; 5-HT2a & 5-HT2c (Homo sapiens) (UniProt P28223+P28335)
# Sequence (P28223 whole entry, looked up): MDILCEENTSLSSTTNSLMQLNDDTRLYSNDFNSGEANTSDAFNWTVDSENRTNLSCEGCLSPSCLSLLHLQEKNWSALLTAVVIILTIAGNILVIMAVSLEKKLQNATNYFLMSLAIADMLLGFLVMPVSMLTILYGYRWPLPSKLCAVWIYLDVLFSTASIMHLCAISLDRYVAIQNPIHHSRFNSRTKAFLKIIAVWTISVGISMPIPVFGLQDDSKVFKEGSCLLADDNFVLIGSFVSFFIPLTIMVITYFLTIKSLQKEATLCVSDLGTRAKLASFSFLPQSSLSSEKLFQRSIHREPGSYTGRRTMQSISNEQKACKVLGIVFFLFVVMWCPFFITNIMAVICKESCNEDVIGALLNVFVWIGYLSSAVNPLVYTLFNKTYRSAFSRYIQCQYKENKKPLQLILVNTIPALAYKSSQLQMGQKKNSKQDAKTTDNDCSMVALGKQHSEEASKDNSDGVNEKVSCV
# Sequence (P28335 whole entry, looked up): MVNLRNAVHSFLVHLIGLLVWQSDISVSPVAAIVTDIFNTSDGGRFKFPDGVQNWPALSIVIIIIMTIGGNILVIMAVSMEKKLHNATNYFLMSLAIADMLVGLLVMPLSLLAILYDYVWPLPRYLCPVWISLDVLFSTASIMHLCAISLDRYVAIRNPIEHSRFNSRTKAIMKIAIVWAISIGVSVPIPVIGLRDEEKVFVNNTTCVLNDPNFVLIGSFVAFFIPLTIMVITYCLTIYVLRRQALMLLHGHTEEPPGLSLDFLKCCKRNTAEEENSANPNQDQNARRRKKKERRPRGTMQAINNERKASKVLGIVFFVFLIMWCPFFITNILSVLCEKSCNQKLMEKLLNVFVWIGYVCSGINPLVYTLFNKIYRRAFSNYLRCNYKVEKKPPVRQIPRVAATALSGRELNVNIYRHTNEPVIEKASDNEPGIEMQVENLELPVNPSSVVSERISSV
# test: Selectivity for human 5HT2A receptor over human 5HT2C receptor
quantity: Ratio Ki

Example entries begin here.
{"columns": ["compound_structure_string", "Ratio Ki"],
 "data": [
  ["O=S(=O)(c1ccc(/C=C/c2cccc(F)c2)nc1)c1ccccc1F", "> 27"],
  ["O=S(=O)(c1ccc(F)cc1)c1ccc(/C=C/c2ccc(F)cc2)cn1", "> 140"],
  ["O=S(=O)(c1ccc(/C=C/c2ccc(F)cc2)nc1)c1cccc(F)c1", "> 420"],
  ["O=S(=O)(c1ccc(/C=C/c2ccccc2F)nc1)c1ccccc1F", "> 1500"],
  ["O=S(=O)(c1ccc(/C=C/c2ccncc2)nc1)c1ccccc1F", "> 5"],
  ["O=S(=O)(c1ccc(F)cc1)c1ccc(CCc2ccc(F)cc2)cn1", "> 210"]
]}

Query string: What measured Ratio Ki goes with `O=S(=O)(c1ccc(/C=C/c2ccc(F)cc2)nc1)c1ccccc1F` ?
Result string: > 740

Query string: What measured Ratio Ki goes with `O=S(=O)(c1ccccc1)c1ccc(/C=C/c2ccc(F)cc2)nc1` ?
Result string: > 540

###

# experimental_system: D(2) dopamine receptor (Homo sapiens)
# Sequence (P14416 whole entry): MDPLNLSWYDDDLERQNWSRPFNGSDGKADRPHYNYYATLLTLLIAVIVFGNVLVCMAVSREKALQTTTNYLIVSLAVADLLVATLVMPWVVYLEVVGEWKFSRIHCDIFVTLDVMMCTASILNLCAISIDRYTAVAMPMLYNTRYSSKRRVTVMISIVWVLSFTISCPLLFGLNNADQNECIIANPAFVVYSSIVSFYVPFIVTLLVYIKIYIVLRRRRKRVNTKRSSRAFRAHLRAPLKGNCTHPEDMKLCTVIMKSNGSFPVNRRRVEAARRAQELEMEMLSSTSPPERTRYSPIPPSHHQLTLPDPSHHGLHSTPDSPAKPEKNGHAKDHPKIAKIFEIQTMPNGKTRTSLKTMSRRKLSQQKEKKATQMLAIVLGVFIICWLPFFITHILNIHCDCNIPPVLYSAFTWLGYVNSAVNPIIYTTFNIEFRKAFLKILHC
# test: Displacement of [3H]spiperone from human dopamine D2 receptor expressed in CHO cells
# Type: cell-based
quantity: Ki

Example entries begin here.
{"columns": ["compound_structure_string", "Ki"],
 "data": [
  ["O=S(=O)(c1ccc(/C=C/c2ccc(F)cc2Cl)nc1)c1ccccc1F", "> 2000 nM"],
  ["O=S(=O)(c1ccccc1)c1ccc(/C=C/c2ccc(F)cc2)nc1", "> 1000 nM"],
  ["O=S(=O)(c1ccc(/C=C/c2ccc(F)cc2)nc1)c1cccc(F)c1", "> 1000 nM"]
]}

Query string: What measured Ki goes with `O=S(=O)(c1ccc(/C=C/c2ccncc2)nc1)c1ccccc1F` ?
Result string: > 2000 nM

The reported measurements were obtained from ChEMBL document CHEMBL1139157.
